The measurements presented in this section are drawn from ChEMBL document CHEMBL1152131.

target.entity: P2Y purinoceptor 1 (Homo sapiens, UniProt P47900)
Sequence (P47900 whole entry): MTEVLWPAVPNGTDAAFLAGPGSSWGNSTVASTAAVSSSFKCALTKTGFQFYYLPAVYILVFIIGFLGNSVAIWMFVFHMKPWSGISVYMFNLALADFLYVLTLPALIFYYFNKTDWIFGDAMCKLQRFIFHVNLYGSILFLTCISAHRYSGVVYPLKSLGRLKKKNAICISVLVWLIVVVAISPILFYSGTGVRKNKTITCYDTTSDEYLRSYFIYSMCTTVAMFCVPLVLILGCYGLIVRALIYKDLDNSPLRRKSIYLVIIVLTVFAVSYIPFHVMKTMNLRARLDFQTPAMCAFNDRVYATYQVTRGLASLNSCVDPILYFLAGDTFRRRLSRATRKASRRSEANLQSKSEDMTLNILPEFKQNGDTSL
experiment.summary: Antagonist activity at human P2Y1 receptor in HEK293 cells assessed as intracellular calcium level by FLIPR
Format: functional, cell-based
setup.conditions: hek293
quantity: IC50 (nM)
Only the number, expressed in nM, is required.

Request the reported IC50 associated with CC[C@@H]1[C@@H](C)[C@H](Nc2ccccc2)c2ccccc2N1C(=O)Nc1cc(Cl)cc(Cl)c1 (stereo in doubt; 16)
600

----------
target.entity: P2Y purinoceptor 1 (Homo sapiens)
experiment.summary: Antagonist activity at human P2Y1 receptor in HEK293 cells assessed as intracellular calcium level by FLIPR
Assay type: functional, cell-based
Note to self: use yes (1) only for IC50 readings below 1000 nM; a reading exactly at 1000 nM still gets no (0).

Some solved entries appear below for comparison.
compound: CC[C@@H]1[C@@H](C)[C@H](Nc2ccccc2)c2ccccc2N1C(=O)c1ccc(Cl)cc1
target.entity: P2Y purinoceptor 1 (Homo sapiens)
class.assignment: no (0)

compound: CC[C@@H]1C[C@H](Nc2ccccc2)c2ccccc2N1C(=O)c1ccc(OC)cc1
target.entity: P2Y purinoceptor 1 (Homo sapiens)
class.assignment: no (0)

compound: CC[C@@H]1[C@@H](C)[C@H](Nc2ccccc2)c2ccccc2N1C(=O)Nc1cccc(OC)c1
target.entity: P2Y purinoceptor 1 (Homo sapiens)
class.assignment: no (0)

Here's an entry: CC[C@@H]1C[C@@H](Nc2ccccc2)c2ccccc2N1C(=O)c1ccc(OC)cc1 . Is its IC50 below 1000 nM?
no (0)

Try this compound next: CC[C@@H]1[C@@H](C)[C@H](Nc2ccccc2)c2ccccc2N1C(=O)Nc1ccc(Cl)cc1
no (0)

----------
target.entity: P2Y purinoceptor 1 (Homo sapiens, UniProt P47900)
experiment.summary: Displacement of [33P]2-Mes-ADP from human recombinant P2Y1 receptor expressed in human U20S cells
Type: cell-based, U2OS
quantity: Ki (nM)
Field format: number, assumed nM, no unit text.

given.smiles: CC[C@@H]1[C@@H](C)[C@H](Nc2ccccc2)c2ccccc2N1C(=O)c1ccc(Br)cc1
units.text: nM
Ki: 100

given.smiles: CC[C@@H]1[C@@H](C)[C@H](Nc2ccccc2)c2ccccc2N1C(=O)c1ccc(OC)cc1
units.text: nM
Ki: 400

given.smiles: CC[C@@H]1[C@@H](C)[C@H](Nc2ccccc2)c2ccccc2N1C(=O)Nc1cccc(OC)c1
units.text: nM
Ki: 500

given.smiles: CC[C@@H]1C[C@H](Nc2ccccc2)c2ccccc2N1C(=O)c1ccc(OC)cc1
units.text: nM
Ki: 800

State the recorded Ki for this entry: CC[C@@H]1[C@@H](C)[C@H](Nc2ccccc2)c2ccccc2N1C(=O)Nc1cccc(Br)c1
100

----------
target.entity: P2Y purinoceptor 1 (Homo sapiens)
experiment.summary: Antagonist activity at human P2Y1 receptor in HEK293 cells assessed as intracellular calcium level by FLIPR
Format: functional, cell-based
Each entry below lists one item and its recorded IC50 value.
Provide only the numeric value, understood in µM.

given.smiles: CC[C@@H]1[C@@H](C)[C@H](Nc2ccccc2)c2ccccc2N1C(=O)c1ccc(OC(F)(F)F)cc1
target.entity: P2Y purinoceptor 1 (Homo sapiens)
units.text: µM
IC50: 1

Enter reported IC50 observed with P2Y purinoceptor 1 (Homo sapiens) for CC[C@@H]1[C@@H](C)[C@H](Nc2ccccc2)c2ccccc2N1C(=O)Nc1ccc(OC)cc1
6

----------
target.entity: P2Y purinoceptor 1 (Homo sapiens, UniProt P47900)
experiment.summary: Displacement of [33P]2-Mes-ADP from human recombinant P2Y1 receptor expressed in human U20S cells
Assay type: cell-based, U2OS
Each item that follows carries a reported Ki.
Put your answer as a value accompanied by its unit after it.

Which Ki reading was recorded for the compound CC[C@@H]1[C@@H](C)[C@H](Nc2ccccc2)c2ccccc2N1C(=O)c1ccc(Cl)cc1 ?
400 nM

Also CC[C@@H]1[C@@H](C)[C@H](Nc2ccccc2)c2ccccc2N1C(=O)Nc1cc(Cl)cc(Cl)c1 (stereo in doubt; 6i) ?
70 nM

Field entry: CC[C@@H]1[C@@H](C)[C@H](Nc2ccccc2)c2ccccc2N1C(=O)c1ccc(OC(F)(F)F)cc1
100 nM

And what about the compound CC[C@@H]1[C@@H](C)[C@H](Nc2ccccc2)c2ccccc2N1C(=O)Nc1ccccc1 ?
400 nM

Another: CC[C@@H]1[C@@H](C)[C@H](Nc2ccccc2)c2ccccc2N1C(=O)Nc1ccc(Cl)cc1
300 nM

----------
target.entity: P2Y purinoceptor 1 (Homo sapiens)
experiment.summary: Displacement of [33P]2-Mes-ADP from human recombinant P2Y1 receptor expressed in human U20S cells
Type: cell-based, U2OS
setup.conditions: u2os
quantity: Ki (nM)
Only the number, expressed in nM, is required.

Name the reported Ki value associated with the compound CC[C@@H]1[C@@H](C)[C@H](Nc2ccccc2)c2ccccc2N1C(=O)Nc1cc(Cl)cc(Cl)c1 (stereo in doubt; 16)
70

----------
target.entity: P2Y purinoceptor 1 (Homo sapiens)
experiment.summary: Antagonist activity at human P2Y1 receptor in HEK293 cells assessed as intracellular calcium level by FLIPR
Type: functional, cell-based
The reader will find reported IC50 values listed item by item below.
Note: unit µM is implicit; provide only the numeric part.

compound: CC[C@@H]1[C@@H](C)[C@H](Nc2ccccc2)c2ccccc2N1C(=O)Nc1cccc(Br)c1
IC50, µM: 1

compound: CC[C@@H]1[C@@H](C)[C@H](Nc2ccccc2)c2ccccc2N1C(=O)Nc1cc(OC)cc(OC)c1
IC50, µM: 0.8

compound: CC[C@@H]1[C@@H](C)[C@H](Nc2ccccc2)c2ccccc2N1C(=O)c1ccc([N+](=O)[O-])cc1
IC50, µM: 1.6

compound: CC[C@@H]1[C@@H](C)[C@H](Nc2ccccc2)c2ccccc2N1C(=O)Nc1cccc(Cl)c1
IC50, µM: 1

// query IC50 value for entry CC[C@@H]1[C@@H](C)[C@H](Nc2ccccc2)c2ccccc2N1C(=O)Nc1cc(Cl)cc(Cl)c1 (stereo in doubt; 6i)
0.6

Let us now turn to CC[C@@H]1[C@@H](C)[C@H](Nc2ccccc2)c2ccccc2N1C(=O)Nc1ccccc1
1.6

----------
target.entity: P2Y purinoceptor 1 (Homo sapiens, UniProt P47900)
experiment.summary: Displacement of [33P]2-Mes-ADP from human recombinant P2Y1 receptor expressed in human U20S cells
Type: cell-based, U2OS
# Ki per record follows
Give just the number in nM; leave the unit off.

Worked examples follow.
given.smiles: CC[C@@H]1[C@@H](C)[C@H](Nc2ccccc2)c2ccccc2N1C(=O)Nc1cccc(Cl)c1
quantity: Ki
value.observed: 300
//
given.smiles: CC[C@@H]1[C@@H](C)[C@H](Nc2ccccc2)c2ccccc2N1C(=O)Nc1cc(OC)cc(OC)c1
quantity: Ki
value.observed: 200

Which Ki value is on record for CC[C@@H]1[C@@H](C)[C@H](Nc2ccccc2)c2ccccc2N1C(=O)c1ccc([N+](=O)[O-])cc1 ?
500

----------
target.entity: P2Y purinoceptor 1 (Homo sapiens)
experiment.summary: Antagonist activity at human P2Y1 receptor in HEK293 cells assessed as intracellular calcium level by FLIPR
Format: functional, cell-based
quantity: pIC50
# pIC50: negative log10 of molar concentration; output just the value

Examples from the recorded data:
given.smiles: CC[C@@H]1[C@@H](C)[C@H](Nc2ccccc2)c2ccccc2N1C(=O)c1ccccc1
quantity: pIC50
value.observed: 4.60
//
given.smiles: CC[C@@H]1[C@@H](C)[C@H](Nc2ccccc2)c2ccccc2N1C(=O)c1ccc(OC)cc1
quantity: pIC50
value.observed: 6.10
//
given.smiles: CC[C@@H]1[C@@H](C)[C@H](Nc2ccccc2)c2ccccc2N1C(=O)c1ccc(Br)cc1
quantity: pIC50
value.observed: 6.10

// moving on: another record for pIC50
Any idea what pIC50 was measured for COc1ccc(C(=O)N2C[C@@H](C)[C@H](Nc3ccccc3)c3ccccc32)cc1 ?
5.00

----------
target.entity: P2Y purinoceptor 1 (Homo sapiens)
experiment.summary: Antagonist activity at human P2Y1 receptor in HEK293 cells assessed as intracellular calcium level by FLIPR
Type: functional, cell-based
quantity: IC50

Please review the entries below; each comes with its answer.
given.smiles: CC[C@@H]1[C@@H](C)[C@H](Nc2ccccc2)c2ccccc2N1C(=O)Nc1ccccc1Cl
target.entity: P2Y purinoceptor 1 (Homo sapiens)
IC50: > 25 µM
//
given.smiles: COc1ccc(C(=O)N2CC[C@H](Nc3ccccc3)c3ccccc32)cc1
target.entity: P2Y purinoceptor 1 (Homo sapiens)
IC50: > 25 µM

Param readout= IC50; system= P2Y purinoceptor 1 (Homo sapiens); entry= CC[C@H]1[C@H](C)[C@@H](Nc2ccccc2)c2ccccc2N1C(=O)Nc1cc(Cl)cc(Cl)c1 ; returns value.
> 25 µM
